# enrichment ratio values compiled below
B1: PhoQ; a variant is named by its letters at X, in order, P23837 (parent)
chain: MKKLLRLFFPLSLRVRFLLATAAVVLVLSLAYGMVALIGYSVSFDKTTFRLLRGESNLFYTLAKWENNKLHVELPENIDKQSPTMTLIYDENGQLLWAQRDVPWLMKMIQPDWLKSNGFHEIEADVNDTSLLLSGDHSIQQQLQEVREDDDDAEMTHSVAVNVYPATSRMPKLTIVVVDTIPVELKSSYMVWSWFIYVLSANLLLVIPLLWVAAWWSLRPIEALAKEVRELEEHNRELLNPATTRELTSLVRNLNRLLKSERERYDKYRTTLTDLTHSLKTPLXXLQXXLRSLRSEKMSVSDAEPVMLEQISRISQQIGYYLHRASMRGGTLLSRELHPVAPLLDNLTSALNKVYQRKGVNISLDISPEISFVGEQNDFVEVMGNVLDNACKYCLEFVEISARQTDEHLYIVVEDDGPGIPLSKREVIFDRGQRVDTLRPGQGVGLAVAREITEQYEGKIVAGESMLGGARMEVIFGRQHSAPKDE

variants of: B1; test: enrichment ratio after two sorts for PhoP signalling (ratio (wild type AVST 3.29)); higher = more functional; settings: with PhoP (E. coli)
Over roughly 140,000 sequences, “enrichment ratio after two sorts for PhoP signalling” has its median near 0; the highest 2% begin near 11. What follows is part of a selection rich in the highest values, with near analogues and random picks from the rest.

mutation annotation | quantity measured | recorded measurement
SLNG | enrichment ratio | 0.339

Retrieve enrichment ratio measured for `SEIS` and print it.
8.01

Retrieve enrichment ratio measured for `HQNT` and print it.
≤ 0.25

Retrieve enrichment ratio measured for `WGKP` and print it.
≤ 0.25

Retrieve enrichment ratio measured for `TAEM` and print it.
25.7

Retrieve enrichment ratio measured for `RING` and print it.
≤ 0.25

Retrieve enrichment ratio measured for `WHFQ` and print it.
1.98

Retrieve enrichment ratio measured for `YHHD` and print it.
≤ 0.25

Retrieve enrichment ratio measured for `SERC` and print it.
≤ 0.25

Recorded values, source a collection of fitness landscapes (doi:10.1126/science.1257360).
